- Test system: SK-OV-3 ovarian
- assayExplanation: NCI tumour cell line growth inhibition, 48 h; in the data active = GI50 below about 0.43 µM; inactive = the rest
Give your call using only these classes: 1 for active, 0 for inactive

Below, 3 compounds whose answers are already recorded.
O=C(O)c1cn(C2CC2)c2cc(N3CCN(C(=O)Nc4nc(-c5ccccc5)cs4)CC3)c(F)cc2c1=O; 0
COc1cccc(-c2nn(-c3ccccc3)cc2-c2ccnc(NCCNC(=O)Nc3cccc(C(F)(F)F)c3)c2)c1; 0
O=C(CN1CCN(c2cc3c(cc2F)c(=O)c(C(=O)O)cn3C2CC2)CC1)Nc1nc(-c2ccc(Cl)cc2)cs1; 0

[ask] Hi, sorry to bother you, what did the test record for Cc1ccc(/C=C2\CN(C(=O)C(Cl)Cl)C/C(=C\c3ccc(C)cc3)C2=O)cc1 ?
[reply] 0

[ask] Just curious, what result did Nc1cc(O)ccc1N=Nc1ccc(-c2nc3ccccc3[nH]2)cc1 get here?
[reply] 0

[ask] Give the logged outcome of this assay for the following compound: FC(F)(F)c1ccc(-c2cnc(-n3cc(COCCN4CCCCC4)nn3)nc2NC2CCCCCC2)cc1
[reply] 0

[ask] Assay result, entry COC1=C(C)C(=O)c2c(c(CCCl)c3n2CCC3O)C1=O (stereo not given) — outcome?
[reply] 1

[ask] Query: recorded result category for CCOC(=O)c1c(C)n(Cc2ccccc2)c2c1cc(O)c1[nH]c(Cc3ccccc3)nc12 in this test
[reply] 0

[ask] Hi team, can someone confirm the assay call for CCOc1cc(Br)c(C(C)NC(=O)c2cccc(OC)c2)cc1OCC (stereo not given) ?
[reply] 0

====

- Tested on: MOLT-4 leukemia
- assayExplanation: NCI tumour cell line growth inhibition, 48 h
measuredParameter: TGI

Known results for molecules:
CC12CC3OC(=O)C1COC14OC5(C2C1=O)C(O)(CCC1C4CC2OC24CC=CC(=O)C14C)C(=O)OC35C (stereo not given); 66.9 µM
COC(OC)C1OCC(n2cc(F)c(=O)[nH]c2=O)C1O (stereo not given); > 100 µM
O=C(CC1(O)C(=O)Nc2ccc(Br)cc21)c1ccc(Cl)cc1Cl (stereo not given); 68 µM

Here are 5 molecules. What values of TGI were reported for them?
1. C=C1c2nc3ccccc3n2C=C(c2ccc(C)cc2)N1c1ccc(C)cc1
2. CC1(C)C(CCO)CC1n1cc(I)c(=O)[nH]c1=O (stereo not given)
3. COC(=O)CCc1ccc2c(c1)C(=O)CC2
4. CN(C)C(=Nc1nc(=[N+](C)C)ss1)N(C)C
5. Cc1ccc2c(=O)c(C(=O)Nn3c(C)csc3=S)c[nH]c2n1

[reply]
1. > 100 µM
2. > 100 µM
3. > 100 µM
4. > 100 µM
5. > 100 µM

# map each molecule to its TGI
1. COC(=O)C1=C(OC(=O)/C=C/c2ccccc2)C(C(=O)OC)[C@@]2(O)[C@@H](C(=O)OC)[C@H](C)C[C@@H]1[C@@H]2C(=O)OC (stereo not given in full)
2. CC(=O)c1ccccc1NCC(=O)Nn1cnc2ccc(S(=O)(=O)Nc3ccccc3C(C)=O)cc2c1=O

[reply]
> 100 µM
> 100 µM

====

- Test system: HOP-92 NSCLC
- assayExplanation: NCI tumour cell line growth inhibition, 48 h
measuredParameter: GI50

Examples with their reported GI50 follow.
COc1ccc(S(=O)(=O)NC2=NCCN2C(=S)SN2CCn3c2nsc3=S)cc1; 16.9 µM
CCCCCCNC(=O)Oc1ccc(/C(=C(/C)Cc2ccc(OC)cc2)c2ccc(OCCCN(C)C)cc2)cc1; 9.99 µM
COc1cc2c(cc1OC)C(Sc1ccc(SC)cc1)c1c(nc(N)c(C#N)c1N)O2 (stereo not drawn); 1.96 µM
COc1ccc(C(c2ccc(OCCN(C)C)cc2)c2cc3ccccc3c3ccccc23)cc1 (stereo not drawn); 1.31 µM
CCOc1cc(Br)c(C(C)NC(=O)c2cccc(OC)c2)cc1OCC (stereo not drawn); 8.97 µM

Hi, could you look up GI50 for each item in my list?
1. O=C(CN1CCN(c2cc3c(cc2F)c(=O)c(C(=O)O)cn3C2CC2)CC1)Nc1nc(-c2ccc(Cl)cc2)cs1
2. COc1cccc(-c2ccc3c(c2)C2CCN(Cc4ccccc4)C3C2)c1 (stereo not drawn)
3. COC1=C(C)C(=O)c2c(c(CCCl)c3n2CCC3O)C1=O (stereo not drawn)

[reply]
1: 2.73 µM; 2: 3.72 µM; 3: 6.21 µM
